run conditions: in acetone, 323.5 K
measured parameter: solubility (mole fraction)
Answer with a bare number; do not write a unit.

Query string: What does the data say about its solubility (mole fraction)? Entry: `c1ccc(P(c2ccccc2)c2ccccc2)cc1`
Result string: 0.25

---

run conditions: in acetone, 313.4 K
measured parameter: solubility (mole fraction)
Answer with a bare number; do not write a unit.

Query string: What does the data say about its solubility (mole fraction)? Entry: `c1ccc(P(c2ccccc2)c2ccccc2)cc1`
Result string: 0.14

---

run conditions: in isopropanol, 303.1 K
measured parameter: solubility (mole fraction)
Answer with a bare number; do not write a unit.

Query string: What does the data say about its solubility (mole fraction)? Entry: `c1ccc(P(c2ccccc2)c2ccccc2)cc1`
Result string: 0.0077
